A compilation of published pIC50 results with Cathepsin S (Homo sapiens).
Please note pIC50 is a logarithmic value: minus log10 of concentration in mol/L. Answer with that number alone.

Some solved entries appear below for comparison.
- Compound: "N#CC1(NC(=O)C2(NC(=O)c3cc4ccc(-c5ccc(C6(O)COC6)cc5)cc4o3)CCCCCC2)CC1"
  Measured result: 6.13
- Compound: "Cn1ccc2c(-c3cnc(OCC4CCN(C(=O)C5CCN(C6CCOCC6)CC5)CC4)c(C(F)(F)F)c3)nc(C#N)nc21"
  Measured result: 8.62
- Compound: "Cn1cc(-c2ccc(S(=O)(=O)[C@@H]3C[C@@H](C(=O)NC4(C#N)CC4)N(C(=O)C4(c5ncc(C(F)(F)F)cc5F)CC4)C3)c(Cl)c2)cn1"
  Measured result: 9.16
- Compound: "CO[C@@H]1C[C@H](S(=O)(=O)c2ccc(-c3cncc(S(C)(=O)=O)c3)cc2C(F)(F)F)C[C@H]1C(=O)NC1(C#N)CC1 (racemic)"
  Measured result: 9.70
- Compound: "COC[C@@H]1C[C@@H](S(=O)(=O)c2ccccc2Cl)C[C@H]1C(=O)NCC#N (single isomer, unassigned)"
  Measured result: 5.92

Report pIC50 for CC1CCN(C(=O)[C@@H]2C[C@H](S(=O)(=O)c3ccccc3)C[C@H]2C(=O)NC2(C#N)CC2)CC1
9.30
